The entries below come with measured IC50 values attached.
target: H1047R PIK3CA enzyme (Homo sapiens, UniProt P42336, H1047R); assay: ADP-Glo Biochemical PIK3CA Kinase Assay
Sequence (P42336 whole entry H1047R): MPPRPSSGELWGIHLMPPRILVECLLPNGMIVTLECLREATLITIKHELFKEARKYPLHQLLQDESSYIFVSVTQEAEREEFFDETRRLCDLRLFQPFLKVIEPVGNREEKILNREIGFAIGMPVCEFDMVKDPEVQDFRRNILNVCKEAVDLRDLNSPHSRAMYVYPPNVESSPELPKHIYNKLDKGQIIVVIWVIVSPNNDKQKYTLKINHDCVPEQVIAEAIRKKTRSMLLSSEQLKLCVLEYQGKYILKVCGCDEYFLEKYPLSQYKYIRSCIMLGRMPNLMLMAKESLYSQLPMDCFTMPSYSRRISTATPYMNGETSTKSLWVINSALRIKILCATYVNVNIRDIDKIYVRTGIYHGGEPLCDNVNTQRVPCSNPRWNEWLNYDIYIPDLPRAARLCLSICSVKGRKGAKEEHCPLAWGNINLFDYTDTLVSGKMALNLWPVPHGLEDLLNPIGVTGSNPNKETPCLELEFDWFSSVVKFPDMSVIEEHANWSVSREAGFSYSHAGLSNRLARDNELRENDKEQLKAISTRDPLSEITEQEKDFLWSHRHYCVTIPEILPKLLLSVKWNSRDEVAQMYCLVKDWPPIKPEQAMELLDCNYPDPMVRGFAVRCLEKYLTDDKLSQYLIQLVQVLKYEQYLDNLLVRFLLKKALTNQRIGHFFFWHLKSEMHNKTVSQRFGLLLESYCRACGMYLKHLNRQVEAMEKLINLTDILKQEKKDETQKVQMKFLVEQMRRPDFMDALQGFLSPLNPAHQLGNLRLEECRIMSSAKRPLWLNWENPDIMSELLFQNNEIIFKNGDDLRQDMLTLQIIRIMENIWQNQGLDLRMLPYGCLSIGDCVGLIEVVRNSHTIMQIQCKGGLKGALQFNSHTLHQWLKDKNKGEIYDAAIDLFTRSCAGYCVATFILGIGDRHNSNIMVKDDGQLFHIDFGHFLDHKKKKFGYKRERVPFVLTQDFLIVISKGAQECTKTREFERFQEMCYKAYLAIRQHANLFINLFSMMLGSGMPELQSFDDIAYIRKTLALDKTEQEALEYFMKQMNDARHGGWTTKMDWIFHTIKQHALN
Sequence (P27986 whole entry partner): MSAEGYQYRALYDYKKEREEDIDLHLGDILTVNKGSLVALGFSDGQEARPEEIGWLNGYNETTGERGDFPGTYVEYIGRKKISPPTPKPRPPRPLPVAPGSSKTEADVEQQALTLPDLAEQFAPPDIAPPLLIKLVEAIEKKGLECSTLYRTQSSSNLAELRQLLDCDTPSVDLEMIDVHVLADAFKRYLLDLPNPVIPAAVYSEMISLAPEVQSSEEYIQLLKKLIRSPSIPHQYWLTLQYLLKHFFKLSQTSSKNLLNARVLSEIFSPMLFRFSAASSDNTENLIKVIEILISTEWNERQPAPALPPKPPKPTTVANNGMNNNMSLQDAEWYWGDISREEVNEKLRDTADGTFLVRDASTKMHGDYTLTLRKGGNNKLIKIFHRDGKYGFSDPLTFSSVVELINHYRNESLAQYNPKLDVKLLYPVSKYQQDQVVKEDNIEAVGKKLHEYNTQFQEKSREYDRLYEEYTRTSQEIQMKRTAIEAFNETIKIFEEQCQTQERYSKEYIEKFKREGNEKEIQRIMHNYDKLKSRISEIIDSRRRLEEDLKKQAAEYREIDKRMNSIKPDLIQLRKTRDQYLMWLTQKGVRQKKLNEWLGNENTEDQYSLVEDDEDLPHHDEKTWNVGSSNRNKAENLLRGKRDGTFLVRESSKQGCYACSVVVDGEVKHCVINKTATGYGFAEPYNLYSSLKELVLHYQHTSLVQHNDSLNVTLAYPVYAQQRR

Completed entries (count: 2):
Cc1ncc(-c2cc(NC(=O)c3cc(F)cc(Cl)c3)c3c(c2)C(=O)N[C@@H]3c2cc(F)ccc2Cl)cn1 = 10 to 100 µM
CNC(=O)c1cc(NC(=O)c2nsc3ccccc23)c2c(c1)C(=O)N[C@@H]2c1ccccc1C = 1 to 10 µM

Task: // query IC50 value for entry O=C(Nc1cc(NC(=O)C2CCO2)cc2c1C(c1cc(F)ccc1Cl)NC2=O)c1cc(F)cc(C(F)(F)F)c1 (stereo not shown)
Result: ≤ 0.1 µM

Task: And then Cc1ccccc1C1NC(=O)c2cc(CNC(=O)OC(C)(C)C)cc(NC(=O)c3csc4ccccc34)c21 (stereo not shown) , what is it?
Result: ≤ 0.1 µM
